- Test method notes: Cytotoxicity against human LPc006 cells after 48 hrs by sulforhodamine B assay
- Format: functional, cell-based
- Conditions: LPc006, 48 h

Line notation	IC50 [µM]
O=C(O)c1cc2c(C(F)(F)F)cc(-c3ccccc3)cc2n1O	16.3
O=C(O)c1cc2cc(-c3ccccc3)ccc2n1O	14.3
O=C(O)c1cc2ccc(-c3ccccc3)cc2n1O	15.7

====

- Measured on: L-lactate dehydrogenase B chain (Homo sapiens) (UniProt P07195)
- Sequence (P07195 2-334 limits assumed): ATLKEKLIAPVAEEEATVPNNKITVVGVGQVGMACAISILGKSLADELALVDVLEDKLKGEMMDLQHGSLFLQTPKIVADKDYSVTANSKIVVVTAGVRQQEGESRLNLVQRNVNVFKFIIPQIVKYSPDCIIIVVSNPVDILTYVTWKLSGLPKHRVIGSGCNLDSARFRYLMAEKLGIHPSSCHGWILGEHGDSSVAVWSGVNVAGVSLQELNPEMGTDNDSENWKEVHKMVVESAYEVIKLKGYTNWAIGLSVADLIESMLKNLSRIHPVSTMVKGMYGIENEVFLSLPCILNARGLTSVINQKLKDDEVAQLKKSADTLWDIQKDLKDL
- Test method notes: Inhibition of human LDH-B using pyruvate as substrate and NADH as cofactor at 125 uM after 5 mins by calorimetric assay relative to control
Metric name: inhibition

Line notation	Assay result
O=C(O)c1cc2c(C(F)(F)F)cc(-c3ccccc3)cc2n1O	11%
COC(=O)c1cc2ccc(-c3ccccc3)cc2n1O	8%

====

- Test method notes: Cytotoxicity against immortalized human HPNE cells expressing human TERT after 48 hrs by sulforhodamine B assay
- Format: functional, cell-based
List of IC50 values.
Metric name: IC50

Line notation	Metric name	Assay result
O=C(O)c1cc2cc(-c3ccccc3)ccc2n1O	IC50	> 100 µM
O=C(O)c1cc2ccc(-c3ccccc3)cc2n1O	IC50	> 100 µM
O=C(O)c1cc2c(C(F)(F)F)cc(-c3ccccc3)cc2n1O	IC50	> 100 µM

====

List of pIC50 values.
- System: NCI-H2452
- Test method notes: Cytotoxicity against human NCI-H2452 cells after 48 hrs by sulforhodamine B assay
- Assay type: functional, cell-based
- Conditions: NCI-H2452, 48 h
pIC50: −log10 of the molar value.

Line notation	pIC50
O=C(O)c1cc2cc(-c3ccccc3)ccc2n1O	4.34
O=C(O)c1cc2c(C(F)(F)F)cc(-c3ccccc3)cc2n1O	4.04
O=C(O)c1cc2ccc(-c3ccccc3)cc2n1O	4.67

Hey, just so you know, these numbers are from ChEMBL document CHEMBL1687923.
